- targetSystem: gamma-globulin preparation (The Chemo-Sero-Therapeutic Research Institute), a human antibody (human)
- measurementProtocol: ELISA on immobilised human gamma-globulin, anti-6His detection; antibody binding activity after acid treatment (pH 3.0, 72 h, 30 C) divided by that without treatment
property: RESIDUAL ACTIVITY [%] (%)
API: value field is a number in %; no unit string.

For orientation, consider the following solved cases.
1) FcγRIIa-m11-Del3 (receptor) MGQAAAPPKAVLKLEPPWTNVLQEDSVTLTCQGARSDSVLWFHNGNLIPTQTQLTYRFKATSNDSGEYTCQTGQTSLSDPVHLTVLSEWLVLQPPRLEFQEGETIMLRCHSWKDKPLVKVTFFQNGKSQKFSHLDPTFSIPQANHSHSGDYHCTGNIGYTSFSSKPVTITVQGGHHHHHH    72.4
2) FcγRIIa-m11-Del7 (receptor) MGQAAAPPKAVLKLEPPWTNVLQEDSVTLTCQDSVLWFHNGNLIPTQTQLTYRFKATSNDSGEYTCQTGQTSLSDPVHLTVLSEWLVLQPPRLEFQEGETIMLRCHSWKDKPLVKVTFFQNGKSQKFSHLDPTFSIPQANHSHSGDYHCTGNIGYTSFSSKPVTITVQGGHHHHHH    33.3

Read the next record carefully.
Prompt: Recorded RESIDUAL ACTIVITY [%] of FcγRIIa-m11-Del6 (receptor) MGQAAAPPKAVLKLEPPWTNVLQEDSVTLTCQGDSVLWFHNGNLIPTQTQLTYRFKATSNDSGEYTCQTGQTSLSDPVHLTVLSEWLVLQPPRLEFQEGETIMLRCHSWKDKPLVKVTFFQNGKSQKFSHLDPTFSIPQANHSHSGDYHCTGNIGYTSFSSKPVTITVQGGHHHHHH , please.
Completion: 25.4
